The measurements presented in this section are drawn from ChEMBL document CHEMBL1156904.

molecular target: P2Y purinoceptor 12 (Homo sapiens, UniProt Q9H244); assay: Inhibition of human P2Y12 receptor expressed in CHO cells
Sequence (Q9H244 whole entry): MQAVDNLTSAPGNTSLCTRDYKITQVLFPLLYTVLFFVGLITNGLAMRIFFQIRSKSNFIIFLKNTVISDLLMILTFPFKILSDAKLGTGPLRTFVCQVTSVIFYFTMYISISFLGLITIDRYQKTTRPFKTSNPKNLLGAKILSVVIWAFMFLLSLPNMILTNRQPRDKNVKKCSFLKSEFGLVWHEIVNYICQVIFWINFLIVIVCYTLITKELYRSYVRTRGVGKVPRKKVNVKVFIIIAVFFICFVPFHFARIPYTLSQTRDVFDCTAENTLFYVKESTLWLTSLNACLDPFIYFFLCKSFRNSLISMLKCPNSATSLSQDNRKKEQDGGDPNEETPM
measure name: Ki (nM)

- molecule: "CCCCCOC(=O)N1CCN(C(=O)[C@H](CCC(=O)O)NC(=O)c2cc(N3CCCC(CN4CCCC4)C3)cc(-c3ccccc3)n2)CC1 (stereo not given in full)"
  measure name: "Ki"
  unit of measurement: "nM"
  test value: 7.3
- molecule: "CCCCCOC(=O)N1CCN(C(=O)[C@H](CCC(=O)O)NC(=O)c2cc(N3CC(CNC)C3)cc(-c3ccccc3)n2)CC1"
  measure name: "Ki"
  unit of measurement: "nM"
  test value: 7.1
- molecule: "CCCCCOC(=O)N1CCN(C(=O)[C@H](CCC(=O)O)NC(=O)c2cc(N3CC(C(=O)NCC)C3)cc(-c3ccccc3)n2)CC1"
  measure name: "Ki"
  unit of measurement: "nM"
  test value: 2
- molecule: "CCCCCOC(=O)N1CCN(C(=O)[C@H](CCC(=O)O)NC(=O)c2cc(N3CC[C@@H](C(=O)N(CC)CC)C3)cc(-c3ccccc3)n2)CC1"
  measure name: "Ki"
  unit of measurement: "nM"
  test value: 2.6
- molecule: "CCCCCOC(=O)N1CCN(C(=O)[C@H](CCC(=O)O)NC(=O)c2cc(N3CCC(CN(C)C)CC3)cc(-c3ccccc3)n2)CC1"
  measure name: "Ki"
  unit of measurement: "nM"
  test value: 1.9
- molecule: "CCCCCOC(=O)N1CCN(C(=O)C(CCC(=O)O)NC(=O)c2cc(N3CCC(COC)C3)cc(-c3ccccc3)n2)CC1 (mixture of isomers)"
  measure name: "Ki"
  unit of measurement: "nM"
  test value: 31
- molecule: "CCCCCCOC(=O)N1CCN(C(=O)[C@H](CCC(=O)O)NC(=O)c2cc(N3CCC(C(=O)N(CC)CC)CC3)cc(-c3ccccc3)n2)CC1"
  measure name: "Ki"
  unit of measurement: "nM"
  test value: 4.8
- molecule: "CCCCCOC(=O)N1CCN(C(=O)[C@H](CCC(=O)O)NC(=O)c2cc(N3CCC(C(N)=O)CC3)cc(-c3ccccc3)n2)CC1"
  measure name: "Ki"
  unit of measurement: "nM"
  test value: 6.5
- molecule: "CCCCCOC(=O)N1CCN(C(=O)[C@H](CCC(=O)O)NC(=O)c2cc(N3CCN(CCN)CC3)cc(-c3ccccc3)n2)CC1"
  measure name: "Ki"
  unit of measurement: "nM"
  test value: 4.5
- molecule: "CCCCOC(=O)N1CCN(C(=O)[C@H](CCC(=O)O)NC(=O)c2cc(N3CCC(C(=O)NCC)CC3)cc(-c3ccccc3)n2)CC1"
  measure name: "Ki"
  unit of measurement: "nM"
  test value: 0.68

---

target: P2Y purinoceptor 12 (Homo sapiens, UniProt Q9H244); experiment: Inhibition of human P2Y12 receptor expressed in CHO cells in presence of 0.4% human serum albumin
pKi: −log10 of the molar value.

- substance smiles: "CCCCCOC(=O)N1CCN(C(=O)[C@H](CCC(=O)O)NC(=O)c2cc(N3CCC(C(=O)N4CCCC4)CC3)cc(-c3ccccc3)n2)CC1"
  pKi: 8.17
- substance smiles: "CCCCOC(=O)N1CCN(C(=O)[C@H](CCC(=O)O)NC(=O)c2cc(N3CCC(C(=O)N4CCCC4)CC3)cc(-c3ccccc3)n2)CC1"
  pKi: 8.20
